- Test system: NCI-H226 lung
- MEASUREMENT_PROTOCOL: NCI tumour cell line growth inhibition, 48 h
I'd be grateful if you could share measured TGI for these entries.

// TGI value for O=C1Nc2ccc(F)cc2/C1=C/c1ccc[nH]1 : > 25 µM

Record CN(C)C(=O)[C@H](O)[C@H](Cc1ccccc1)NC(=O)c1cc2cc(Cl)ccc2[nH]1 , field TGI: > 88.2 µM

Reported TGI of N#CC1CC2(C1)OCCS2 (stereo unspecified) : > 100 µM

// recorded TGI for COc1ccc(/C=C/c2cc(OC)cc(=O)o2)cc1 : > 100 µM

The compound identified as CC(=O)[C@@]1(O)CC[C@H]2[C@@H]3C[C@H](C)C4=CC(=O)C=C[C@]4(C)[C@@]3(F)[C@@H](O)C[C@@]21C registered its TGI at > 100 µM

Entry Nc1ccn(C2CCC(CO)O2)c(=O)n1 (stereo unspecified) , TGI reported as > 1000 µM

====

- System: HL-60(TB) leukemia
- MEASUREMENT_PROTOCOL: NCI tumour cell line growth inhibition, 48 h
Please go through the items and note down their TGI.

Record for COc1ccc(/C=C/c2cc(OC)cc(=O)o2)cc1 under target or system HL-60(TB) leukemia: TGI reported as > 100 µM

Field TGI (system: HL-60(TB) leukemia) for entry COc1ccc(C2OC(c3ccncc3)=NN2C)cc1OC (centres undefined) = > 100 µM

Observed TGI, HL-60(TB) leukemia, C[N+]12CCCCC1C(CN1C(=O)Cc3c4ccccc4c(c4ccccc34)CC1=O)CCC2 (centres undefined) : > 100 µM

Entry COc1c(CCl)cc(-c2cc(=O)c3ccccc3s2)cc1CCl : TGI on HL-60(TB) leukemia = > 23.6 µM

====

Kindly state TGI for each of the entries shown.
- System: COLO 205 colon
- MEASUREMENT_PROTOCOL: NCI tumour cell line growth inhibition, 48 h

Measured TGI of O=C1C(=Cc2ccccc2O)N=C(c2ccccc2)N1n1c(-c2ccccc2)nc2ccccc2c1=O : > 100 µM

The molecule listed as COc1c(CCl)cc(-c2cc(=O)c3ccccc3s2)cc1CCl shows TGI equal to > 100 µM

Field TGI (entry Cc1ccc(S(=O)(=O)C(C#N)c2nc3ccccc3nc2-n2ccnc2)cc1 (stereo not given) ) reads > 100 µM

Just so you know, measured TGI for CCC1(C)C=Cc2c(cc(O)c3c(=O)c4ccccc4n(C)c23)O1 (stereo not given) came out at > 10 µM

The molecule listed as CCOC(=O)C1C2CCC1CC(=NNc1ccc([N+](=O)[O-])cc1[N+](=O)[O-])C2 (stereo not given) has a reported TGI of > 50 µM

Record C=CCOc1ccc(C2C(C(=O)OCC)C(=O)CC(C)(O)C2C(=O)OCC)cc1OC (stereo not given) , field TGI: > 100 µM

TGI reading for C1C[OH+]CC[OH+]CC[OH+]CC[OH+]CC[OH+]1.[Cl-].[V] : > 100 µM

Looking up Cc1ncc(CCCN(C)C)cc1Nc1ncc2c(n1)-c1ccc(C(F)(F)F)cc1NC(=S)C2 , I found its TGI recorded as < 0.0198 µM

TGI reading for CSc1cnc2ccccc2c1SC1CN(Cc2ccccc2)c2ccccc2C1=O (stereo not given) : > 100 µM

TGI measured on COc1cc2c3c(c1OC)C1(C=CC(=O)C=C1)C[C@H]3N(C)CC2 = > 100 µM

TGI in this record for O=C1OC2CCCC[C@@H]2C2C[C@]34CCCCC3[C@@H](C(=O)O4)C12 (stereo not given in full) : > 100 µM

Field TGI (entry On1c(-c2ccccc2)nc2ccccc2c1=S ) reads > 100 µM

Data point: COc1ccc(/C=C/c2cc(OC)cc(=O)o2)cc1 ; TGI = > 100 µM

The recorded TGI for S=C1OC2CCCC[C@H]2O1 (stereo not given in full) is > 100 µM

Lab note: measured TGI of CC(C)CC(O)P(=O)(O)O (stereo not given) was > 100 µM

# TGI (molecule: CSc1ncnc2c1ncn2CCC#N ) is > 100 µM

In plain terms, CCOC(=O)NC(Nc1cccc(C(F)(F)F)c1)(C(F)(F)F)C(F)(F)F has a documented TGI of > 100 µM

TGI reported for this molecule CN1COCc2c1ccc1cc3ccc4c(c3nc21)COCN4S(C)(=O)=O : > 100 µM

// field: TGI; key: COC(=O)C1=C(C)NC(C)=C(C(=O)OC)C1c1nc2sccn2c1[N+](=O)[O-] ; value = > 100 µM

Looking up CC1CCCC(CC(=O)O)(CC(=O)O)C1 (stereo not given) , I see its TGI listed as > 100 µM
